assayedTarget: BRG-1 (Homo sapiens)
procedureDetails: ATPase catalytic activity assay of BRG-1 (ADP-Glo)
Type: biochemical
statedConditions: ATPase catalytic activity, ADP-Glo; read-out: BRG1 IC50 (μM)*
propertyMeasured: IC50

Just so you know, measured IC50 for C[C@H](N)C(C)(C)c1cccc(C(=O)NCC(=O)Nc2nc(-c3cccc(-c4ccncc4)c3)cs2)c1 came out at > 5 µM

Just so you know, measured IC50 for C[C@@H]1CN(c2cccc(-c3csc(NC(=O)CNC(=O)c4cccc(C5(F)COC5)c4)n3)c2)C[C@H](C)O1 came out at 1 to 5 µM

Just so you know, measured IC50 for C[C@@]1(CO)CCc2ccc(C(=O)NCC(=O)Nc3nc(-c4cccc(-c5cnccn5)n4)cs3)cc21 came out at > 5 µM

Just so you know, measured IC50 for CC1CC(c2cccc(-c3csc(NC(=O)CNC(=O)c4ccc5c(c4)[C@](C)(C#N)COC5)n3)c2)O1 (stereo partly drawn) came out at 0.1 to 1 µM

Others:
Just so you know, measured IC50 for Cn1ccc2ccc(-c3csc(NC(=O)CNC(=O)c4ccc5c(c4)C4(CCO5)COC4)n3)cc2c1=O came out at > 5 µM

Just so you know, measured IC50 for C[C@]1(CO)CCc2ccc(C(=O)NCC(=O)Nc3nc(-c4ccn5ccnc5c4)cs3)cc21 came out at > 5 µM

Just so you know, measured IC50 for C[C@@]1(F)COCc2ccc(C(=O)NCC(=O)Nc3nc(-c4cccc(C#N)c4)cs3)cc21 came out at 0.1 to 1 µM

Just so you know, measured IC50 for CN(C)Cc1cc(-c2cccc(-c3csc(NC(=O)CNC(=O)c4cccc(C(C)(C)CN)c4)n3)c2)ccn1 came out at 1 to 5 µM

Just so you know, measured IC50 for C[C@]1(CO)CCc2ccc(C(=O)NCC(=O)Nc3nc(-c4cccc(-c5cnccn5)n4)cs3)cc21 came out at > 5 µM

----------
Measured BRM Max % Inhibition of individual entries
assayedTarget: BRM (Homo sapiens, UniProt P51531)
Sequence (P51531 whole entry): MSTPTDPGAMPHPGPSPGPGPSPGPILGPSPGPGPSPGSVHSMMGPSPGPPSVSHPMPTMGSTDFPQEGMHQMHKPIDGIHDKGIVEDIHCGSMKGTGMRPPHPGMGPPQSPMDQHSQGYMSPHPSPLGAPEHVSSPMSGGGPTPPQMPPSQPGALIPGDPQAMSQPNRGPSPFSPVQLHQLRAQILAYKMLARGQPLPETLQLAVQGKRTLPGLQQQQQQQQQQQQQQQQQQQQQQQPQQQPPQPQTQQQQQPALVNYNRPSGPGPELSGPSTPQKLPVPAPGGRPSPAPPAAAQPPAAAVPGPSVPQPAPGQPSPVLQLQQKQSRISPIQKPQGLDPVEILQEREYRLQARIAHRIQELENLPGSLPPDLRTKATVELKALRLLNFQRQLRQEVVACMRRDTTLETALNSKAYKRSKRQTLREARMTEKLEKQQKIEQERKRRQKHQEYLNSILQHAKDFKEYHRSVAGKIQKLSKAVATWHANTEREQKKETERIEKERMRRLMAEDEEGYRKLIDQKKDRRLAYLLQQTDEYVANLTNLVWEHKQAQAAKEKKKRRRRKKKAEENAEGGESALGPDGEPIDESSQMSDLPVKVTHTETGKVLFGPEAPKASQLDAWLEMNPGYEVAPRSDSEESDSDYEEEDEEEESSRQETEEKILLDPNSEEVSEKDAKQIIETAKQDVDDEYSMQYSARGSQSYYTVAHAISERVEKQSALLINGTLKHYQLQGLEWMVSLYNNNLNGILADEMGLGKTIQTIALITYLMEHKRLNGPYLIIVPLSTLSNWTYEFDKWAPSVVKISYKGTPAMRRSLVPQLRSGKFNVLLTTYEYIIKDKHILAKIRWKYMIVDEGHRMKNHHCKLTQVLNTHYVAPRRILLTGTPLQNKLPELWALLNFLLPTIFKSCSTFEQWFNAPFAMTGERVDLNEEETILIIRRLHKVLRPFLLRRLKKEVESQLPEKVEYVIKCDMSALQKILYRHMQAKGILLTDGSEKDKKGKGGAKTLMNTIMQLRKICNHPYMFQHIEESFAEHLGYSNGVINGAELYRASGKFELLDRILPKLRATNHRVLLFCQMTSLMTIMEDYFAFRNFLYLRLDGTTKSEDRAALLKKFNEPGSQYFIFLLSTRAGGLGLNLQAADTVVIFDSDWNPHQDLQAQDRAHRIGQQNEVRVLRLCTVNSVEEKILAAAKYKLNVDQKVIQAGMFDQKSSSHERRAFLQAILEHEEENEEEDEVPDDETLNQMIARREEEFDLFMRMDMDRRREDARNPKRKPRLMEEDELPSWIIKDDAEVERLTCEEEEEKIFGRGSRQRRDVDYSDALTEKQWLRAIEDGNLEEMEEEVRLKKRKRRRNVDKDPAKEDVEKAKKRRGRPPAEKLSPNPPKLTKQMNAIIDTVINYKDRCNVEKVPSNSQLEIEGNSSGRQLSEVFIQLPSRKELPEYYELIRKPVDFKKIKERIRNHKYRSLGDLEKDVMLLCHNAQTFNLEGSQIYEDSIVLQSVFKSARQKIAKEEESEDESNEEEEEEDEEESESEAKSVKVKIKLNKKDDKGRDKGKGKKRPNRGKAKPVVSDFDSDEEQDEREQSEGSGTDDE
procedureDetails: ATPase catalytic activity assay of BRM (ADP-Glo)
Format: biochemical

Just so you know, measured BRM Max % Inhibition for C[C@@H]1CN(c2cccc(-c3csc(NC(=O)CNC(=O)c4ccc5c(c4)[C@](C)(C#N)CN5C)n3)c2)C[C@H](C)O1 came out at >95%

Just so you know, measured BRM Max % Inhibition for Cn1ncc2ccc(-c3csc(NC(=O)CNC(=O)c4ccc5c(c4)[C@](C)(CO)CC5)n3)cc21 came out at >80%

Just so you know, measured BRM Max % Inhibition for C[C@@H]1CN(c2cccc(-c3csc(NC(=O)CNC(=O)c4ccc5c(c4)[C@@]4(COC5)CC4(F)F)n3)n2)C[C@H](C)O1 came out at >95%

Others:
Just so you know, measured BRM Max % Inhibition for Cn1ccc2ccc(-c3csc(NC(=O)CNC(=O)c4ccc5c(c4)C4(CCO5)COC4)n3)cc2c1=O came out at >50%

Just so you know, measured BRM Max % Inhibition for C[C@@H]1CN(c2cccc(-c3csc(NC(=O)CNC(=O)c4ccc5c(c4)[C@@](F)(C#N)COC5)n3)n2)C[C@H](C)O1 (single isomer, unassigned) came out at >95%

Just so you know, measured BRM Max % Inhibition for C[C@@H]1CN(c2cccc(-c3csc(NC(=O)CNC(=O)c4ccnc(C(C)(C)C)c4)n3)c2)C[C@H](C)O1 came out at >95%

----------
assayedTarget: UniProt:P51532
procedureDetails: ATPase catalytic activity assay of BRG-1 (ADP-Glo)
Format: biochemical
statedConditions: ATPase catalytic activity, ADP-Glo; read-out: BRG1 Max % Inhibition
propertyMeasured: Emax

In the examples that follow, each entry is paired with its recorded Emax.
Just so you know, measured Emax for Cc1cc(-c2cccc(-c3csc(NC(=O)CNC(=O)c4ccc5c(c4)[C@@](C)(CO)CCC5)n3)n2)ncn1 came out at > 50%

Just so you know, measured Emax for CC(C)S(=O)(=O)c1cccc(C(=O)NCC(=O)Nc2nc(-c3cccc(CO[C@H]4CC[C@H](O)CC4)c3)cs2)c1 came out at > 60%

Just so you know, measured Emax for C[C@@H]1CN(c2cccc(-c3csc(NC(=O)CNC(=O)c4ccc5c(c4)C4(CCCC4=O)CC5)n3)c2)C[C@H](C)O1 (stereo partly drawn) came out at > 70%

Just so you know, measured Emax for CC1(CN)CCc2ccc(C(=O)NCC(=O)Nc3nc(-c4cccc(-c5ccncc5)c4)cs3)cc21 (stereo not drawn) came out at > 70%

Others:
Just so you know, measured Emax for CC(C)(CO)c1cccc(C(=O)NCC(=O)Nc2nc(-c3cccc(C#N)c3)cs2)c1 came out at > 30%

Just so you know, measured Emax for CC(C)(C)c1cccc(C(=O)NCC(=O)Nc2nc(-c3cccc(N4CCC4)c3)cs2)c1 came out at > 60%

Just so you know, measured Emax for C[C@@H]1CN(c2cccc(-c3csc(NC(=O)CNC(=O)c4ccc5c(c4)C4(CCO4)COC5)n3)n2)C[C@H](C)O1 (stereo partly drawn) came out at > 95%

Just so you know, measured Emax for Cc1ccc(C(=O)NCC(=O)Nc2nc(-c3cccc(N4C[C@@H](C)O[C@@H](C)C4)c3)cs2)cc1S(=O)(=O)C(C)C came out at > 80%

----------
assayedTarget: BRM (Homo sapiens, UniProt P51531)
procedureDetails: ATPase catalytic activity assay of BRM (ADP-Glo)
Type: biochemical
statedConditions: read-out: BRM IC50 (μM)*
Measured IC50 of individual entries

Bench note, BRM (Homo sapiens, UniProt P51531): entry C[C@@H]1CN(c2cccc(-c3csc(NC(=O)CNC(=O)c4ccc5c(c4)CCOC5)n3)n2)C[C@H](C)O1 , its IC50 = < 0.1 µM

Others:
Bench note, BRM (Homo sapiens, UniProt P51531): entry C[C@@H]1CN(c2cccc(-c3csc(NC(=O)CNC(=O)c4cccc(C(C)(C)C)c4)n3)c2)C[C@H](C)O1 , its IC50 = < 0.1 µM

Bench note, BRM (Homo sapiens, UniProt P51531): entry CCOC(=O)N1CCC[C@H](c2csc(NC(=O)CNC(=O)c3ccc4c(c3)C(C)(F)COC4)n2)C1 (stereo in doubt) , its IC50 = < 0.1 µM

Bench note, BRM (Homo sapiens, UniProt P51531): entry CN1C[C@@](C)(C#N)c2cc(C(=O)NCC(=O)Nc3nc(-c4cc(F)cc(N5CCC5)c4)cs3)ccc21 , its IC50 = < 0.1 µM

Bench note, BRM (Homo sapiens, UniProt P51531): entry Cc1cc(-c2cccc(-c3csc(NC(=O)CNC(=O)c4cccc(S(=O)(=O)C(C)C)c4)n3)c2)ncn1 , its IC50 = < 0.1 µM

Bench note, BRM (Homo sapiens, UniProt P51531): entry CC(C)(CN)c1cccc(C(=O)NCC(=O)Nc2nc(-c3cccc(-c4ccnc(CO)c4)c3)cs2)c1 , its IC50 = < 0.1 µM

----------
assayedTarget: BRG-1 (Homo sapiens, UniProt P51532)
Sequence (P51532 whole entry): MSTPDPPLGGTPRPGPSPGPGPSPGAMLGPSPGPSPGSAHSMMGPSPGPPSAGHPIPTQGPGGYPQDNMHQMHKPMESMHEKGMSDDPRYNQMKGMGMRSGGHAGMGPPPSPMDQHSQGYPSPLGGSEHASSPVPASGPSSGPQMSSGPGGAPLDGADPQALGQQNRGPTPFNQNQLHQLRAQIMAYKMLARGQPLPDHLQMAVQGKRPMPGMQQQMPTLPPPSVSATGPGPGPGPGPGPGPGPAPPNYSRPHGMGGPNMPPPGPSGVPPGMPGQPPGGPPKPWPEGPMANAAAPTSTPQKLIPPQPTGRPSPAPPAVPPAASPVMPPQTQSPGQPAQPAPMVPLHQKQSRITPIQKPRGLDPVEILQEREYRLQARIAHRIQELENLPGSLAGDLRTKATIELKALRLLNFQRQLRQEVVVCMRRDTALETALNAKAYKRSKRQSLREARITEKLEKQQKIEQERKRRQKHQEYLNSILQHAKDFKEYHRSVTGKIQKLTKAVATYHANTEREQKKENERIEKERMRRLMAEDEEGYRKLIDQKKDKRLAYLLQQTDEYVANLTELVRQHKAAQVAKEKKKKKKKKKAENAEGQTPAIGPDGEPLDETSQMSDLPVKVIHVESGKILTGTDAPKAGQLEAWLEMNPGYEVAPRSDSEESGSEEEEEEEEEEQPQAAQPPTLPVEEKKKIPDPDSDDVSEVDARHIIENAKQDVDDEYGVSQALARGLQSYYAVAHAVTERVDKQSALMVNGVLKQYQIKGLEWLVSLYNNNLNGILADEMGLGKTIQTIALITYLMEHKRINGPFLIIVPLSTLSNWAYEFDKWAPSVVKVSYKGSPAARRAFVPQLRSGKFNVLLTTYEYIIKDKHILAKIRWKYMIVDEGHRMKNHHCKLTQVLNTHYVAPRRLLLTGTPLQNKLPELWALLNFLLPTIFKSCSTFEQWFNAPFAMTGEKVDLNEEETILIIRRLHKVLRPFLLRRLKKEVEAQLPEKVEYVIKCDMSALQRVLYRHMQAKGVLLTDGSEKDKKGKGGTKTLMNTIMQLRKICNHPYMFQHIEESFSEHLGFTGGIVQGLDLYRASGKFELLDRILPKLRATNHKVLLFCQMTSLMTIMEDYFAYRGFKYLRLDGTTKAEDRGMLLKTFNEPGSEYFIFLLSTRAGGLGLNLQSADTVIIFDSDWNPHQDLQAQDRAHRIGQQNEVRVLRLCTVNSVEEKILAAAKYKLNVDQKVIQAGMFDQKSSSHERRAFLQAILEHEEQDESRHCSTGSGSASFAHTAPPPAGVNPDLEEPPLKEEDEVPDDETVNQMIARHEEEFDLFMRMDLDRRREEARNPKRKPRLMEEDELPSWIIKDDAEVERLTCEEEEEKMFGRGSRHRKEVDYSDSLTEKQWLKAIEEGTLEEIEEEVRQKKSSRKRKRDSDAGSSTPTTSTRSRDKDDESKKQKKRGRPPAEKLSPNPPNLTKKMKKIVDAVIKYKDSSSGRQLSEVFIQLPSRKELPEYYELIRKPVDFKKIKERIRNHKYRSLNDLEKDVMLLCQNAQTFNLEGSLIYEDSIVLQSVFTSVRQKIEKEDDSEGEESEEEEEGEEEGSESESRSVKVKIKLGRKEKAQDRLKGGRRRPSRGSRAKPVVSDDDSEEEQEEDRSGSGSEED
procedureDetails: ATPase catalytic activity assay of BRG-1 (ADP-Glo)
Format: biochemical
statedConditions: ATPase catalytic activity, ADP-Glo; read-out: BRG1 IC50 (μM)*
propertyMeasured: IC50

In the examples that follow, each entry is paired with its recorded IC50.
Just so you know, measured IC50 for CC(C)(CO)c1cccc(C(=O)NCC(=O)Nc2nc(-c3cccc(-c4ccncc4)c3)cs2)c1 came out at 0.1 to 1 µM

Just so you know, measured IC50 for C[C@@H]1CN(c2cccc(-c3csc(NC(=O)CNC(=O)c4ccc5c(c4)[C@@](F)(C#N)COC5)n3)n2)C[C@H](C)O1 (single isomer, unassigned) came out at 0.1 to 1 µM

Just so you know, measured IC50 for Cc1cc(C(=O)NCC(=O)Nc2nc(-c3cccc(-c4ccncc4)c3)cs2)cc(S(=O)(=O)C(C)C)c1C came out at > 5 µM

Just so you know, measured IC50 for CC(C)S(=O)(=O)c1cccc(C(=O)NCC(=O)Nc2nc(-c3cccc(-c4ccnc(C(F)(F)F)c4)c3)cs2)c1 came out at 1 to 5 µM

Just so you know, measured IC50 for COc1cccc(-c2csc(NC(=O)CNC(=O)c3cc(F)c4c(c3)C(C)(O)COC4)n2)c1 (stereo in doubt) came out at 1 to 5 µM

Shifting focus to the compound that follows.
Just so you know, measured IC50 for C[C@@H]1CN(c2cccc(-c3csc(NC(=O)CNC(=O)c4ccc5c(c4)[C@@](C)(CO)CCO5)n3)c2)C[C@H](C)O1 came out at > 5 µM

----------
assayedTarget: BRG-1 (Homo sapiens, UniProt P51532)
procedureDetails: ATPase catalytic activity assay of BRG-1 (ADP-Glo)
Type: biochemical
statedConditions: ATPase catalytic activity, ADP-Glo; read-out: BRG1 Max % Inhibition
propertyMeasured: Emax

In the examples that follow, each entry is paired with its recorded Emax.
Just so you know, measured Emax for C[C@]1(CO)CCc2c(C(=O)NCC(=O)Nc3nc(-c4cccc(-c5ccncc5)c4)cs3)cccc21 came out at > 70%

Just so you know, measured Emax for C[C@@H]1CN(c2cccc(-c3csc(NC(=O)CNC(=O)c4ccc5c(c4)[C@](C)(C#N)CN5C)n3)c2)C[C@H](C)O1 came out at > 95%

Just so you know, measured Emax for Cc1cc(-c2cccc(-c3csc(NC(=O)CNC(=O)c4cccc(C(C)(C)CN)c4)n3)c2)ncn1 came out at > 70%

Shifting focus to the compound that follows.
Just so you know, measured Emax for COc1cccc(-c2csc(NC(=O)[C@H](C)NC(=O)c3ccc4c(c3)[C@](C)(F)COC4)n2)c1 came out at > 95%

Source of measurements: patent US12685735B2
